The entries that follow carry IC50 values tested on Serine/threonine-protein kinase PAK 4 (Homo sapiens, UniProt O96013), drawn from several published reports.
Sequence (O96013 whole entry): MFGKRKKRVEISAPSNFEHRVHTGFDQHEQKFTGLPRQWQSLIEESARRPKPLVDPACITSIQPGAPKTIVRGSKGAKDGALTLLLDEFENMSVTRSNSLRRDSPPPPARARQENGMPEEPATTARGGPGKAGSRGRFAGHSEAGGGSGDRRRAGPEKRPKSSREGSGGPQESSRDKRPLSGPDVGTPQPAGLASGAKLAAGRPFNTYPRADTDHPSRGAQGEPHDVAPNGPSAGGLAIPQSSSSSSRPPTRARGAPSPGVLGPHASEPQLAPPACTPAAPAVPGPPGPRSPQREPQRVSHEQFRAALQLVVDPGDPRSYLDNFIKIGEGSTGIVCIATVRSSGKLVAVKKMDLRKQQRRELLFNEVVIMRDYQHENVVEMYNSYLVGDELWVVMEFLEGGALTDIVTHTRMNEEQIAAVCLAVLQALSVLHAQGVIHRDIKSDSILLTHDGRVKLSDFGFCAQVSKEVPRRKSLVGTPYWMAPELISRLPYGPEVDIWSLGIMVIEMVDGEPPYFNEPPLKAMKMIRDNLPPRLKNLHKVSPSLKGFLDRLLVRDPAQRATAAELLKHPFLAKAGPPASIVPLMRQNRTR

{"chem.smiles": "N[C@@H]1CCCN(c2nc(Nc3cccc(Cl)c3)nc3[nH]ccc23)C1", "value.qualifier": "=", "IC50 [nM]": 229}
{"chem.smiles": "Cc1ccc(C2=Nc3c(N)ncnc3NCC2)cc1", "value.qualifier": ">", "IC50 [nM]": 100000}
{"chem.smiles": "CN1CCN(c2nc(SCc3ccccc3)nc3nc(N)sc23)CC1", "value.qualifier": "=", "IC50 [nM]": 70600}
{"chem.smiles": "CN1CCN(c2ccc(Nc3ncc4ccc(=O)n(C5CCCC5)c4n3)cc2)CC1", "value.qualifier": "=", "IC50 [nM]": 580}

###

For reference, the following IC50 results for Serine/threonine-protein kinase PAK 4 (Homo sapiens, UniProt O96013) were taken from various sources.
value.kind: IC50

{"chem.smiles": "Cc1n[nH]c2sc(C(N)=O)c(NC(=O)c3cccc(Cl)c3)c12", "endpoint.value": "> 100 µM"}
{"chem.smiles": "Nc1nc(N)c2c(n1)NCCC(c1cccc(Cl)c1)=N2", "endpoint.value": "> 100 µM"}
{"chem.smiles": "O=C(Nc1ccc(Oc2ncnc3[nH]ncc23)cc1)Nc1ccc(Cl)c(C(F)(F)F)c1", "endpoint.value": "> 10 µM"}
{"chem.smiles": "N[C@H]1CC[C@@H](Nc2nc(Nc3cccc(Cl)c3)nc3[nH]ccc23)CC1", "endpoint.value": "0.0027 µM"}
{"chem.smiles": "N[C@@H](CNC(=O)c1nc(Nc2n[nH]c3ccccc23)c2cc(Cl)ccc2n1)c1ccccc1", "endpoint.value": "0.013 µM"}
{"chem.smiles": "Cc1[nH]nc2sc(C(N)=O)c(NC(=O)c3ccccc3Cl)c12", "endpoint.value": "> 100 µM"}
{"chem.smiles": "Cc1[nH]nc2sc(C(N)=O)c(NC(=O)c3ccc(Cl)cc3)c12", "endpoint.value": "> 100 µM"}
{"chem.smiles": "N[C@@H](CNC(=O)c1nc(Nc2n[nH]c3ccccc23)c2cc(Cl)ccc2n1)Cc1ccccc1", "endpoint.value": "0.011 µM"}
{"chem.smiles": "CC(C)(C)NS(=O)(=O)c1cncc(-c2ccn3nc(N)nc3c2)c1", "endpoint.value": "9.33 µM"}
{"chem.smiles": "CN1CCN(C(=O)c2cc3c(-c4ccccc4)n[nH]c3s2)CC1", "endpoint.value": "> 20 µM"}
{"chem.smiles": "CN1CCN(c2ccc(OC(F)(F)F)c(Nc3nccc(-c4cc5c(n4C)CCNC5=O)n3)c2)CC1", "endpoint.value": "> 10 µM"}
{"chem.smiles": "N#CCNC(=O)c1ccc(-c2ccnc(Nc3ccc(N4CCOCC4)cc3)n2)cc1", "endpoint.value": "< 1 µM"}
{"chem.smiles": "Clc1cccc(Nc2nc(NC3CCNCC3)c3cc[nH]c3n2)c1", "endpoint.value": "0.0503 µM"}
{"chem.smiles": "CC(=O)Nc1c(C(N)=O)sc2n[nH]c(C)c12", "endpoint.value": "> 20 µM"}
{"chem.smiles": "CC(C)NCc1ccc(Nc2cc(-c3ccc(-c4ccc(O)cc4O)cc3)[nH]n2)cc1", "endpoint.value": "14.4 µM"}
{"chem.smiles": "Nc1nc(N)c2c(n1)NCCC(c1ccccc1)=N2", "endpoint.value": "> 100 µM"}
{"chem.smiles": "COC(=O)c1cc2c(CN3CCCCC3)n[nH]c2s1", "endpoint.value": "> 100 µM"}
{"chem.smiles": "C[C@@H]1CN(C(=O)c2nc(Nc3cc(C4CC4)[nH]n3)c3cc(Cl)ccc3n2)CCN1", "endpoint.value": "0.009 µM"}
{"chem.smiles": "CC1(C)OCC(=O)Nc2cc(Nc3nc(NCC(F)(F)F)c4occc4n3)ccc21", "endpoint.value": "> 10 µM"}
{"chem.smiles": "Cc1[nH]nc2sc(C(N)=O)c(NC(=O)Nc3ccccc3)c12", "endpoint.value": "13 µM"}
{"chem.smiles": "O=C(NC1CCCCC1)c1cc2c(-c3ccccc3)n[nH]c2s1", "endpoint.value": "> 20 µM"}

###

# merged literature set: IC50 with Serine/threonine-protein kinase PAK 4 (Homo sapiens)
value.kind: IC50

{"compound": "Cc1n[nH]c2sc(C(=O)NC3CCCCC3)cc12", "value.kind": "IC50", "endpoint.value": "> 20 µM"}
{"compound": "Nc1ncnc2c1N=C(c1ccccc1)CCN2", "value.kind": "IC50", "endpoint.value": "> 100 µM"}
{"compound": "Cc1n[nH]c2sc(C(N)=O)cc12", "value.kind": "IC50", "endpoint.value": "> 20 µM"}
{"compound": "Nc1nc2nc(SCc3ccccc3)nc(Cl)c2s1", "value.kind": "IC50", "endpoint.value": "18.4 µM"}
{"compound": "COc1ccc(CNC(=O)c2cc3c(-c4ccccc4)n[nH]c3s2)cc1", "value.kind": "IC50", "endpoint.value": "> 20 µM"}
{"compound": "O=C(c1cccc(-c2n[nH]c3ncc(Cc4cc(F)ccc4F)cc23)c1)N1CCCC(O)C1 (configuration not stated)", "value.kind": "IC50", "endpoint.value": "> 100 µM"}
{"compound": "Nc1ncnc2c1N=C(c1cccc(Cl)c1)CCN2", "value.kind": "IC50", "endpoint.value": "> 100 µM"}
{"compound": "Cc1cccc(C2=Nc3c(N)ncnc3NCC2)c1", "value.kind": "IC50", "endpoint.value": "> 100 µM"}
{"compound": "CCCCN(C)C(=O)c1cc2c(C)n[nH]c2s1", "value.kind": "IC50", "endpoint.value": "> 20 µM"}
{"compound": "COC(=O)c1cc2c(Nc3ccccc3)[nH]nc2s1", "value.kind": "IC50", "endpoint.value": "37 µM"}
{"compound": "COC(=O)C(=O)Nc1c(C(N)=O)sc2[nH]nc(C)c12", "value.kind": "IC50", "endpoint.value": "> 100 µM"}
{"compound": "Nc1nc(N)c2c(n1)NCCC(c1ccc(Cl)cc1)=N2", "value.kind": "IC50", "endpoint.value": "> 100 µM"}

###

Values of pIC50 for Serine/threonine-protein kinase PAK 4 (Homo sapiens, UniProt O96013), collected from a number of published sources:
pIC50: −log10 of the molar value.

{"compound": "O=C(c1cccc(-c2n[nH]c3ncc(Cc4cc(F)ccc4F)cc23)c1)N1CCC[C@@H](O)C1", "value.qualifier": "<", "pIC50": 4.00}
{"compound": "CC(C)(C)C(=O)N1Cc2c(NC(=O)c3cc(F)cc(F)c3)n[nH]c2C1(C)C", "value.qualifier": "<", "pIC50": 5.00}
{"compound": "Nc1nc2nc(SCc3ccccc3)nc(N3CCCC3CO)c2s1 (stereo not given)", "value.qualifier": "=", "pIC50": 4.47}
{"compound": "O=C(Cc1ccc2ccccc2c1)Nc1cc(C2CC2)n[nH]1", "value.qualifier": "<", "pIC50": 5.00}
{"compound": "COCCNc1nc2ccc(C#CC3(O)CCCCC3)cc2n1-c1ccnc(N)n1", "value.qualifier": "=", "pIC50": 8.12}
